Property: protein stability index; scope: individual sequences
assay: protein stability index of a GFP-peptide fusion (GPS, HEK-293T) (PSI 1-6); higher = more stable; settings: treatment: MLN4924 1 uM, 8 h; c terminus: a fixed tail appended;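 note: 24-mer peptide tiles fused after GFP, lentivirally expressed, FACS-sorted into six equal bins by GFP/DsRed ratio, decoded by Illumina sequencing, PSI is the read-weighted mean bin number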
parameterMeasured: protein stability index

sequencecontent="DSDFRELHTAREFSEEDEEETTSQ [RTN2]" parametermeasured="protein stability index" reportedvalue=5.5
sequencecontent="WGVCEPQREEVEERMWAAIQSWDI [ZER1]" parametermeasured="protein stability index" reportedvalue=3.56
sequencecontent="LLSDGSNTLSVSYKKGRMMKDISN [SLC6A17]" parametermeasured="protein stability index" reportedvalue=3.35
sequencecontent="KPPPRKHTRSWAVLKLLLLLLLFG [LRRC59]" parametermeasured="protein stability index" reportedvalue=2.02
sequencecontent="YSLASGAGGGGSKGNSLKRSKSIR [RAB40C]" parametermeasured="protein stability index" reportedvalue=4.41
sequencecontent="REVSSYPSTVGAEAQEEFLRVLGS [DFFB]" parametermeasured="protein stability index" reportedvalue=4.23

====

Below, each of the sequences is paired with its reported protein stability index value.
test: protein stability index of a GFP-peptide fusion (GPS, HEK-293T) (PSI 1-6); higher = more stable; details: treatment: DMSO; c terminus: a fixed tail appended
parameterMeasured: protein stability index

sequencecontent="ISVNGDVITIKSESTFKNTEISFI [FABP4]" reportedvalue=2.75
sequencecontent="AAFLALLRFLYSDEVQIGPETVMT [BTBD1]" reportedvalue=2.49
sequencecontent="QMNLLQKYSLLKLTALLEKYTPSN [DLC1]" reportedvalue=2.48
sequencecontent="ANMEDLTEVITASEFHPHHCNLFV [PPP2R2C]" reportedvalue=2.49
